Hello, the source for this data is patent US20240417482A1, in case you need it.

TEST_SYSTEM: T1, human 4-1BB-His protein (human, UniProt Q07011 24-186)
T1 construct: Recombinant His-tagged protein; also called human 4-1BB-his tag; recombinant 4-1BB protein; not shown: His tag
METHOD_SUMMARY: ELISA, plate coated with human 4-1BB-His, anti-human IgG-HRP
ENDPOINT_NAME: EC50 (ng/mL)
Numbers only, in ng/mL.

[
  {
    "BINDER": "B31 chimeric mAb (VHH, Alpaca VHH tested as 'chimeric mAb' expressed in 293F cells, purified by protein G, detected with anti-human IgG and captured on Protein A; also called B31 chimeric antibody) VHH: QVQLVESGGGLVQAGGSLRLSCAASGDIFSIMFWYRQPQGKQREYVAHITSNGRTNYADSVTGRFTISRGNNDNTMYLQMDNLKPQDTAVYYCAADDATNTRTYWGQGTQVTVSS",
    "MEASUREMENT_UNIT": "ng/mL",
    "EXPERIMENTAL_VALUE": 2.42
  }
]

Consider the additional binder presented here.
Query: Requested field: EC50. Item: B210 chimeric mAb (VHH, Alpaca VHH tested as 'chimeric mAb') VHH: EVQLVESGGGLVQPGGSLRLSCAASGLSLDYYAIGWFRQAPGKEREGVSCISSSGRSTNYADSVKGRFTISRDNAKNTVYLQMNSLKPEDTADYYCATDTTTRCPIWSNYVESDYWGQGTQVTVSS
Reply: 2.51
